Listed below: Ki values for each entry.
# tgt: neuronal nicotinic receptors
# experimentNotes: Displacement of [3H]-MCC or [3H]-cytisine from neuronal nicotinic receptors, whole rat brain membranes
# Assay type: binding
# conditionLabel: Table 1; oxalate salt; read-out: Nicotinic Receptor Ki
# Method: Binding of [^3 H]-methylcarbamylcholine ([^3 H]-MCC) or [^3 H]-cytisine ([^3 H]-CYT) to nicotinic receptors was accomplished using crude synaptic membrane preparations from whole rat brain (Snyder and Enna, Brain Research, 1975, 100:81). […] The filters are counted in 4 mL of Ecolume® (ICN). […] IC50 values were determined with the ALLFIT nonlinear least squares curve-fitting program and IC50 values were converted to Ki values using the Cheng and Prusoff correction (Ki =IC50 /(1+[ligand]/Kd of ligand)). […]
Counter-ions that a name gives are not always drawn.

Here is how some compounds turned out for Ki.
CN1CCC[C@H]1c1cc(Cc2ccccc2)no1 [Example 7, oxalate salt]	18 nM
CCc1cc([C@@H]2CCCN2C)on1.O=C(O)C(=O)O [Example 4, oxalate salt]	9 nM

Kindly review the next compound as well.
Quick one: give measured Ki for Cc1cc([C@@H]2CCCN2C)on1.O=C(O)C(=O)O [Example 2, oxalate salt]
5 nM

Reference source for all entries: patent US5409946A
